test-name: Acute toxicity test (LD50) in mice
condition-label: mouse, in vivo, po; p.o. (5% solution), male ddY mice, after seven days
Where a name gives a salt, the structure may show the parent alone.
# Lookup of reported LD50 at 168 h keyed by entry
Give just the numeric value; mg/kg need not be written.

The examples below pair each entry with its known result.
# compound, scale-unit, assay-result
measured = [
    ("CC1=C(C(=O)OCCN(C)Cc2ccccc2)C(c2ccccc2C(F)(F)F)C(P2(=O)OC(C)CC(C)O2)=C(C)N1 (stereo not drawn) [Hydrochloride of Example 6]", "mg/kg", 53),
    ("CC1=C(C(=O)OCCN(C)Cc2ccccc2)C(c2cccc(Cl)c2)C(P2(=O)OC(C)CC(C)O2)=C(C)N1 (stereo not drawn) [Hydrochloride of Example 7]", "mg/kg", 74),
]

Q: // lookup LD50 at 168 h for COC(=O)C1=C(C)NC(C)=C(C(=O)OCCN(C)Cc2ccccc2)C1c1cccc([N+](=O)[O-])c1 (stereo not drawn) [Nicardipine, reference compound]
Result: 561
